# SYSTEM NAME: T1, human PXR-GST (Invitrogen) (human, UniProt O75469 111-434, limits assumed)
# T1 construct: Captured on an anti-GST antibody chip; the whole natural protein is named; also called GST-PXR; GST-tagged PXR; not shown: GST tag
# T1 sequence (looked up): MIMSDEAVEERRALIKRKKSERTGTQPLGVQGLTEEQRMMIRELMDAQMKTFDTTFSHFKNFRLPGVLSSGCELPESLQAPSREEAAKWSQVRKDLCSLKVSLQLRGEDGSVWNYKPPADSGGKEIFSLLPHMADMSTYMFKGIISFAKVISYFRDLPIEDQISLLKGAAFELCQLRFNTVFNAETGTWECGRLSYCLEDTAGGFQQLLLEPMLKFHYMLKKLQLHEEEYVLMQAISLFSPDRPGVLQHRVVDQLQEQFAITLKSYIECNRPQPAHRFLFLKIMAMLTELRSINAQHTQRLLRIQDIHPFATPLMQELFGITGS
# METHOD SUMMARY: SPR, Biacore T100; human PXR-GST captured on anti-GST antibody chip;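 note: binding rate constants and Kd derived from kinetic cycles using the Biacore T100 analysis software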
MEASUREMENT TYPE: pKd
One number for each entry, as −log10 of the molar value.

Which measured pKd value corresponds to Adnectin-6 (designed binder) MGVSDVPRDLEVVAATPTSLLISWSRPKGSIKYYRITYGETGGNSPVQEFTVPNSQYTATISGLKPGVDYTITVYAVYGYPYQEPHYYPISINYRTEIDKPSQHHHHHH ?
8.72

Pending binder:
Need pKd, item Adnectin-5 (designed binder) MGVSDVPRDLEVVAATPTSLLISWKYPYETISYYRITYGETGGNSPVQEFTVPYYRSTATISGLKPGVDYTITVYAVEASAPYSDGGSPISINYRTEIDKPSQHHHHHH
8.27

Data provenance is patent US20130245238A1.
